Test: NCI Yeast Anticancer Drug Screen. Data for the sgs1 strain (AID 173);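 also: 0% = growth of vehicle-only control cultures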
Details: S. cerevisiae sgs1 mutant, at 3.7 µM, active compounds read high
Procedure: Growth inhibition of yeast strains with defined genetic alterations is measured as a screen for potential anti-cancer activity. Selected strains with alterations in DNA damage repair or cell cycle control were exposed to compounds and growth inhibition was measured relative to vehicle treated controls. The strain used in this assay is sgs1
About 79,000 compounds went through this panel and 15% of them were active in at least one assay; those are over-represented in the sample as a whole. The source made the active and inactive calls. Rule as the data show it: active = growth inhibition above about 70%; inactive = the rest.
Recorded endpoint: growth inhibition

INSERT INTO results (molecule, experimental_result) VALUES
  ('COc1cccc2c1C(=O)c1c(O)c3c(c(O)c1C2=O)CC(O)(C(O)CO)CC3OC1CC(N2CCOCC2)C(O)C(C)O1 (stereo unspecified)', '97% (active)'),
  ('Oc1ccc2c(c1)C(O)CCCC2 (stereo unspecified)', '19% (inactive)'),
  ('CCCC/C=C/C(C)(C(=O)OCC)C(=O)OCC', '-1% (inactive)'),
  ('COc1c(O)c(C=O)c(Br)c(C=O)c1O', '3% (inactive)'),
  ('O=c1ccc2ccccc2c2ccccc12', '12% (inactive)'),
  ('O=C1c2ccccc2C(=O)N1CCCC(=O)n1cc(F)c(=O)[nH]c1=O', '7% (inactive)');

* * *

assay: NCI Yeast Anticancer Drug Screen. Data for the wt1 strain (AID 149);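 also: 0% = growth of vehicle-treated wt1 cultures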; conditions: S. cerevisiae wt1 strain (SPY 50644) growth inhibition; at 3.7 µM; active compounds read high
This is part of a sample that, as a whole, favours compounds with a hit. Of some 79,000 tested, about 15% had one in any assay.
Recorded endpoint: growth inhibition (%)

INSERT INTO results (substance_smiles, experimental_result) VALUES
  ('Cc1ccc2nc(-c3cccc([N+](=O)[O-])c3)oc(=O)c2c1', -3),
  ('CNC(=O)OCc1c(COC(=O)NC)c2n(c1C)-c1ccc(OC)cc1CCC2', -53),
  ('CC(C)/C(Cl)=N\OC(=O)Nc1ccc(F)cc1F', 1),
  ('Oc1ccc(-c2nc(-c3ccc(F)cc3)c(-c3ccc4ccccc4n3)[nH]2)cc1', -54),
  ('Cc1cc(C)c(NC(=S)NC(=O)c2ccccc2)cc1C', -29),
  ('CCOc1ccccc1N=Cc1c2ccccc2cc2ccccc12', 26);

* * *

Assay: NCI Yeast Anticancer Drug Screen. Data for the bub3 strain (AID 167)
Details: S. cerevisiae bub3 mutant strain, at 50.0 µM
Method: Growth inhibition of yeast strains with defined genetic alterations is measured as a screen for potential anti-cancer activity. Selected strains with alterations in DNA damage repair or cell cycle control were exposed to compounds and growth inhibition was measured relative to vehicle treated controls. The strain used in this assay is bub3
The panel holds about 79,000 compounds, 15% with a hit somewhere; the sample as a whole holds those more often. The source made the active and inactive calls. Rule as the data show it: active = growth inhibition above about 70%; inactive = the rest.
Labels: TRUE = active, FALSE = inactive

INSERT INTO assay_data (molecule, assigned_label) VALUES
  ('CCOC(=N)c1ccc(O)c(OC)c1', 'TRUE'),
  ('COc1ccc(N=CN(C)C)c(C)c1', 'TRUE'),
  ('CCCCC/C(=C(\C#N)C(=O)OCC)c1ccccc1', 'FALSE'),
  ('Cc1cc(C(C)(C)C)c(OCCCN2CCOCC2)c(C(C)(C)C)c1', 'TRUE'),
  ('CCCCN(CCCC)CCC(O)c1cc2c(Cl)cc(Cl)cc2c2cc(C(F)(F)F)ccc12 (configuration not stated)', 'TRUE'),
  ('CC(C)C(C)/C=C\C(C)C1CCC2C3=CC=C4CC(O)CCC4(C)C3CCC21C (configuration not stated)', 'FALSE'),
  ('O=C(NNc1ccccc1)c1ccc(Cl)c(Cl)c1', 'FALSE'),
  ('CC(=O)OC1CC2C(C)(C)C(=O)C=C[C@]2(C)C2CCC3(C)C(=CCC3[C@H](CO)C[C@H](O)C(=O)C(C)(C)O)[C@]12C (some centres not stated)', 'FALSE'),
  ('CCOC(=O)c1cc([N+](=O)[O-])c(Sc2ncnc3nc[nH]c23)c([N+](=O)[O-])c1', 'FALSE'),
  ('O=C(c1ccc([N+](=O)[O-])cc1)C1N=NCC1c1ccccc1 (configuration not stated)', 'TRUE'),
  ('N#CC(=Nc1ccccc1F)Nc1ccccc1F', 'FALSE'),
  ('CC1SC2(C(=O)Nc3ccc(Cl)cc32)N(c2ccc(Cl)cc2)C1=O (configuration not stated)', 'TRUE'),
  ('CCOc1ccc(NC(=O)C2=C(C)NC(C)=C(C(=O)Nc3ccc(OCC)cc3)C2c2cccc([N+](=O)[O-])c2)cc1', 'FALSE'),
  ('Cc1cc(=O)oc2c(C)c3occc(=O)c3cc12', 'TRUE'),
  ('CN(C)CCNC(=O)c1cccc2c1Oc1c(cccc1[N+](=O)[O-])O2', 'FALSE'),
  ('O=C1c2cccnc2C(=O)C2C3C=CC(C3)C12 (configuration not stated)', 'TRUE'),
  ('O=[N+]([O-])/C=C/c1cc(Cl)c(/C=C/[N+](=O)[O-])cc1Cl', 'TRUE'),
  ('COc1cc(CSc2ccc(O)cc2)cc(O)c1O', 'FALSE'),
  ('Cc1csc(=S)n1OC(=O)NC1CCCCC1', 'TRUE'),
  ('CCCCCCOC(=O)NCCOC(=O)Nc1ccccc1', 'FALSE'),
  ('CCN(CC)CCNc1ccc2ncn3c4cc(OC)c(OC)c(=O)c4c(O)c1c23', 'FALSE'),
  ('CC(/C=C/c1ccccc1)=N\NC(N)=S', 'TRUE'),
  ('CCOc1c(N=Nc2ccccc2OC)c(C)nn1C(=S)S', 'TRUE'),
  ('CCOC(=O)C1=C(C)NC(C)=C(C(=O)OCCNC(=O)c2ccc(N=[N+]=[N-])cc2)C1c1ccccc1C(F)(F)F (configuration not stated)', 'FALSE'),
  ('Cc1ccc(Cl)cc1NC(=O)OCCN(C)C(=O)Nc1cc(Cl)ccc1C', 'FALSE'),
  ('NC1=NNC2(C(N)=N1)c1ccccc1-c1ccccc12', 'FALSE'),
  ('O=[N+]([O-])c1cc(S(=O)(=O)Nc2ccccc2)ccc1Nc1ccccc1', 'TRUE'),
  ('COC(=O)Oc1cc(Cl)c(Cl)cc1Cl', 'FALSE'),
  ('C[C](C)(C)[Ge]([O][Ge]([c]1ccccc1)[c]1ccccc1)([O][Ge]([c]1ccccc1)[c]1ccccc1)[C](C)(C)C', 'TRUE'),
  ('Cc1cccc(/C=N/NC(=S)N2CCCC2)n1', 'TRUE'),
  ('CCCCCOC(=S)SC(=O)OCC', 'TRUE'),
  ('O=C(NCCCl)Sc1ccc(Cl)cc1', 'TRUE'),
  ('Cc1nc(Nc2ccccc2[N+](=O)[O-])sc1C(=O)CC(=O)C(=O)Nc1c(C(C)C)cccc1C(C)C', 'FALSE'),
  ('COc1cc([C@@H]2c3cc4c(cc3[C@H](OC3OC5COC(C(C)C)OC5C(O)C3O)C3COC(=O)[C@@H]32)OCO4)cc(OC)c1O (some centres not stated)', 'FALSE'),
  ('C[C@@](O)(/C=C/[C@H]1CC=CC(=O)O1)[C@@H](C[C@@H](O)\C=C/C=C\C=C\CO)OP(=O)(O)O', 'TRUE'),
  ('CC(C)CN(CC(C)C)C(=O)c1ccc(Cl)c(Cl)c1', 'TRUE'),
  ('CC(C)OC(=O)c1ccc(CCc2cc(O)c(Br)cc2O)cc1', 'TRUE'),
  ('Cc1cc(S(=O)(=O)Nc2nnc3cnc4ccccc4n23)c(S)cc1Cl', 'FALSE'),
  ('CC(=O)OC1CCC2(C)C(=CC(C3C=C4CC(OC(C)=O)CCC4(C)C4=C3C3CC5OC6(CCC(C)CO6)C(C)C5C3(C)CC4)C3=C2CCC2(C)C3CC3OC4(CCC(C)CO4)C(C)C32)C1 (configuration not stated)', 'TRUE'),
  ('CC[N+]1(C)CCC(O)(c2ccc(OC)cc2)C(C(=O)c2ccc(OC)cc2)C1 (configuration not stated)', 'FALSE'),
  ('CCOC(=O)c1[nH]n(-c2ccccc2)c(=O)c1C=NC(=S)C(N)=S', 'FALSE'),
  ('O=C1CSC(c2cccc(Cl)c2)N1c1ccc(-c2ccc(-n3c(-c4ccccc4)nc4ccccc4c3=O)cc2)cc1 (configuration not stated)', 'TRUE');

Hey, just so you know, these numbers are from PubChem BioAssay (NCI).
